Cited source: PubChem BioAssay (Tox21)

# TEST NAME: qHTS assay to identify small molecule agonists of the peroxisome proliferator-activated receptor delta (PPARd) signaling pathway - cell viability counter screen (AID 743211); further: nearly all actives have a fitted effect of over 55% in size
# CONDITION LABEL: PPARd-bla HEK293H viability, CellTiter-Glo luminescence, 17 h; series mostly up to 62.6 µM
Results filed as inconclusive are left out. Active and inactive are the calls of the source. The call rests on the fitted dose curve; in most records, active means well fitted cell-killing curve with a large enough effect in the repeat runs; inconclusive means weak or mixed curves; inactive means no such curve, though single readings can be large or run the other way.
Output constraint: value belongs to y = active, n = inactive

Per the assay record, what outcome was assigned to CCn1cc[n+](C)c1 ?
n

And what about the compound O=Cc1ccc(Cl)cc1Cl ?
n

O=C(O)COc1ccc(Cl)cc1 , same question.
n

Do the same for C=CCOC(C)=O please
n

Input O=C(Nc1ccccc1)Nc1ccnc(Cl)c1
n

// query: Cl/C=C\Cl
n

// next record O=Cc1ccc2c(c1)OCO2
n

Item: O=[N+]([O-])c1cc(C(F)(F)F)cc([N+](=O)[O-])c1Cl
n

// repeat for C=CC(=O)OCCCCO and report
n

Same lookup for O=NN1CCCCCC1 , please.
n

Check CC1C(=O)C[C@]2(C(C)C)C[C@H]12 (some centres not stated) too.
n

Then what about the compound CCOP(=S)(OCC)Oc1nc(Cl)c(Cl)cc1Cl ?
n

Cc1ccccc1C(=O)Nc1cccc(OC(C)C)c1 , same question.
n

Now give it for ClCc1ccccc1 too.
n

Same for [O-][Cl+]O
n

// same read-out, input: NC(=O)CI
n

Another: CNP(=O)(OC)Oc1ccc(C(C)(C)C)cc1Cl (configuration not stated)
n

What would you report for CN1[C@@H]2CC[C@H]1CC(OC(=O)c1cc(Cl)cc(Cl)c1)C2 (some centres not stated) ?
n

// query: NNC(=O)c1cccnc1
n

Now consider CC(C)(OO)c1ccccc1 .
n

Continue with CC(Cl)Cl
n

Quick one: CC(C)(CCl)C(=O)Cl
n

What do you get for COc1ccc(-c2ccccc2)cc1NNC(=O)OC(C)C ?
n

And the next one, O=C(OC1CCCCC1)c1ccccc1C(=O)OC1CCCCC1 ?
y

Now consider COc1cc(Cl)c(OC)cc1Cl .
n

Lookup CCC(C)(NC(=O)c1cc(Cl)c(C)c(Cl)c1)C(=O)CCl (configuration not stated)
y

Another compound to look at: CCCC(=O)Cl
n
